- target-system: Epidermal growth factor receptor (Homo sapiens)
- run-description: Inhibition of EGFR at 10 uM by HTRF assay relative to control
endpoint: inhibition (%)

1. Cc1cccc(Oc2ccnc(N3CCN(C(=O)c4c(C)noc4C)CC3)n2)c1 : 0
2. Nc1nc(N2CCOCC2)cc(N2CCC(C(=O)NCCc3ccc(O)cc3)CC2)n1 : 0
3. CN(CCCn1ccnc1)C(=O)[C@@H]1CCCN1c1nccc(Nc2ccccc2)n1 : 5
4. O=C(c1nc(SCc2ccc(Cl)cc2)n2ccccc12)N1CCN(c2cc(Nc3cccc(Br)c3)ncn2)CC1 : 0
5. Cc1cccc(N(C)c2cc(Nc3cccc(C(=O)NCCCn4ccnc4)c3)ncn2)c1 : 100

---

- target-system: Vascular endothelial growth factor receptor 1 (Homo sapiens) (UniProt P17948)
- Sequence (P17948 whole entry): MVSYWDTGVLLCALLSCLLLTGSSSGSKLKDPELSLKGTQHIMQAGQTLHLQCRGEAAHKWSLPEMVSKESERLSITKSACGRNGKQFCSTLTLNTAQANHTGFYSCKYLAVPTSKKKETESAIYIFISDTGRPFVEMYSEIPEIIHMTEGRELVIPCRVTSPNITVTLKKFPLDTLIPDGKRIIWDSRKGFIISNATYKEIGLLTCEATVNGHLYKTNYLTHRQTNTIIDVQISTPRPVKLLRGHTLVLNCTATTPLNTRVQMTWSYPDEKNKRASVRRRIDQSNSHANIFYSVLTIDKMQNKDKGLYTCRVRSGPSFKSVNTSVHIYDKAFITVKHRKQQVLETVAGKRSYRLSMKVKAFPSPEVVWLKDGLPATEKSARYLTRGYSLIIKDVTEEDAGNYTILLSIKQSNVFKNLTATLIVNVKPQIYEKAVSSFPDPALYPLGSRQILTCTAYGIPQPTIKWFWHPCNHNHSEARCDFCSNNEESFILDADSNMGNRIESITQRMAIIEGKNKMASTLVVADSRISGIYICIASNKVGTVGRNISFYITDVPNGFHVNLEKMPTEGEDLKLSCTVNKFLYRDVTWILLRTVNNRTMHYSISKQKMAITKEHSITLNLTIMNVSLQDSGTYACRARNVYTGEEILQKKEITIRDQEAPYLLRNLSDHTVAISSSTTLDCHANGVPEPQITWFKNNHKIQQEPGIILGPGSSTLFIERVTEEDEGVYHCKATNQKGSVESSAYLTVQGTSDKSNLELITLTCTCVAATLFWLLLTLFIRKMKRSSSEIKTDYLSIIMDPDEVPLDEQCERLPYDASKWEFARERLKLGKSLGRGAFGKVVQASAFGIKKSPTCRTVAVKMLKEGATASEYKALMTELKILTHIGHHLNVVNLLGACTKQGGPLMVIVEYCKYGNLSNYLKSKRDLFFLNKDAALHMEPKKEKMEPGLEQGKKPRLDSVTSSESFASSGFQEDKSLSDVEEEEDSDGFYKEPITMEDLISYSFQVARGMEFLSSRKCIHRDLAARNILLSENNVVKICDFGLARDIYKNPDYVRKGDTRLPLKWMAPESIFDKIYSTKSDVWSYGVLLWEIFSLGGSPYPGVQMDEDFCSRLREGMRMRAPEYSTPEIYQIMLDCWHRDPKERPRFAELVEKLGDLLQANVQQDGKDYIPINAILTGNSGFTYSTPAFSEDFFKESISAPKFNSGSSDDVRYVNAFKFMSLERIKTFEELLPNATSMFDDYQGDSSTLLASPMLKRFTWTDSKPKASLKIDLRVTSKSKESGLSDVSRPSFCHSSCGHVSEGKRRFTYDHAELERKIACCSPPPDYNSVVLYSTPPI
- run-description: Inhibition of FLT1 at 10 uM by HTRF assay relative to control
// reported inhibition per item
endpoint: inhibition (%)

1) COc1cccc(Nc2cc(Nc3cccc(C(=O)N(C)CCc4ccccn4)c3)nc(N)n2)c1 : 15
2) Cc1cccc(Oc2ccnc(N3CCC[C@H]3C(=O)NCc3cccnc3)n2)c1 : 0
3) Cc1cccc(Nc2nccc(Nc3cccc(C(=O)N(C)CCc4ccccn4)c3)n2)c1 : 34
4) Cc1cccc(Oc2ccnc(N3CCN(CC(=O)Nc4cccc5c4CCCC5)CC3)n2)c1 : 0
5) COC[C@@H]1CCCN1C(=O)[C@@H]1CCCN1c1nccc(Nc2ccccc2)n1 : 1
6) O=C(c1nc(SCc2ccc(Cl)cc2)n2ccccc12)N1CCN(c2ncnc3c2CN(Cc2ccccc2)CC3)CC1 : 0
7) Nc1nc(N2CCOCC2)cc(N2CCC(C(=O)NCCc3ccc(O)cc3)CC2)n1 : 0
8) O=C(c1nc(SCc2ccc(Cl)cc2)n2ccccc12)N1CCN(c2cc(Nc3cccc(Br)c3)ncn2)CC1 : 0
9) Nc1nc(Nc2ccc(C(=O)NCCc3ccncc3)cc2)cc(N2CCOCC2)n1 : 0

---

- target-system: Tyrosine-protein kinase ZAP-70 (Homo sapiens) (UniProt P43403)
- Sequence (whole entry): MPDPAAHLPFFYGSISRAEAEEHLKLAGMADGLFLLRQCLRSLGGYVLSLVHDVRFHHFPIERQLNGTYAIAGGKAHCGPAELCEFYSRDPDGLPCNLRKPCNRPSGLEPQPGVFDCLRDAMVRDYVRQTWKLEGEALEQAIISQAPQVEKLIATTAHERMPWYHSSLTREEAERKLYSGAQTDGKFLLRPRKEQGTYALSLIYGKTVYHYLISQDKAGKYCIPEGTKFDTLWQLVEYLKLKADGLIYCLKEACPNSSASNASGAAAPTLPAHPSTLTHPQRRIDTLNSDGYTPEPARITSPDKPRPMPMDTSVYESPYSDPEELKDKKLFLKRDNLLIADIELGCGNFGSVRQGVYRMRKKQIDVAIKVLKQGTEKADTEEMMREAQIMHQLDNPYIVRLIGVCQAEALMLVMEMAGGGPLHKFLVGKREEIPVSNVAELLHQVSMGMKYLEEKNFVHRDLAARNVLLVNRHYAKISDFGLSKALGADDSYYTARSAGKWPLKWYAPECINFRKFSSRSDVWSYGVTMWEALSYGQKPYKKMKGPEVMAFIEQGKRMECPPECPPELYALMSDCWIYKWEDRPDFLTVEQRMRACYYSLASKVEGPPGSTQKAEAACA
- run-description: Inhibition of ZAP70 at 10 uM by HTRF assay relative to control
endpoint: inhibition (%)

1. Cc1ccc(CN2CCN(c3nccc(C(C#N)c4ccccn4)n3)CC2)cc1 (centres undefined) : 4
2. Cc1cccc(Oc2ccnc(N3CCN(CC(=O)Nc4cccc5c4CCCC5)CC3)n2)c1 : 1
3. CN(CCc1ccccn1)C(=O)c1cccc(Nc2nccc(Nc3ccc4ncsc4c3)n2)c1 : 13
4. CC(=O)CCCCC(=O)N1CCN(c2nccc(Oc3cccc(C)c3)n2)CC1 : 0
5. Cc1cccc(Nc2nccc(Nc3cccc(C(=O)NCc4ccc(N(C)C)cc4)c3)n2)c1 : 6
6. COc1ccc(NC(=O)Cc2ccc(Nc3cc(N(C)c4cccc(C)c4)ncn3)cc2)cn1 : 2
7. O=C(c1nc(SCc2ccc(Cl)cc2)n2ccccc12)N1CCN(c2cc(Nc3cccc(Br)c3)ncn2)CC1 : 1
8. CN(CCCn1ccnc1)C(=O)[C@@H]1CCCN1c1nccc(Nc2ccccc2)n1 : 3
9. Cc1cccc(Nc2ncnc3c2CN(C(=O)c2ccc(N(C)C)c4ccccc24)CC3)c1 : 6

---

- target-system: Fibroblast growth factor receptor 1 (Homo sapiens) (UniProt P11362)
- Sequence (P11362 22-822 limits assumed): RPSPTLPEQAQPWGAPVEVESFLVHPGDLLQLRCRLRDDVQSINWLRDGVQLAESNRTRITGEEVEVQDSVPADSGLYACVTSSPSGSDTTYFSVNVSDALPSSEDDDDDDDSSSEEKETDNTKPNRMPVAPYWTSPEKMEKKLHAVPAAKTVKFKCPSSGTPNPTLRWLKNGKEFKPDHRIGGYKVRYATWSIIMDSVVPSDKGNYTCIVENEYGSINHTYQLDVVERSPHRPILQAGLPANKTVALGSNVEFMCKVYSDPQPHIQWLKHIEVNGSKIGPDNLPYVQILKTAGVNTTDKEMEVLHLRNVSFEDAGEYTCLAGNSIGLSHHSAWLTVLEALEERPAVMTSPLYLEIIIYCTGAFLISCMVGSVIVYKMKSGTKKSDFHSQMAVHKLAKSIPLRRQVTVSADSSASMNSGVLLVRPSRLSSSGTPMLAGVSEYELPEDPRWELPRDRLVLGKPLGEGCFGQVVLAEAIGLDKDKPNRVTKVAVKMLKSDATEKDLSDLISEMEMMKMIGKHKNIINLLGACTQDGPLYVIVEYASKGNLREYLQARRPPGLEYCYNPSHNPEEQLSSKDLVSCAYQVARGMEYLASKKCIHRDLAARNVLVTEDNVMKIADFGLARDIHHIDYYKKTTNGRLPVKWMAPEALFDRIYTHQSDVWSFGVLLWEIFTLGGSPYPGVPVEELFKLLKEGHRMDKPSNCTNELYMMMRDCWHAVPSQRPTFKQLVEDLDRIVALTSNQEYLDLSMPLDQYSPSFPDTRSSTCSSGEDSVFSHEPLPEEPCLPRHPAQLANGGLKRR
- run-description: Inhibition of FGFR1 at 10 uM by HTRF assay relative to control
// reported inhibition per item
endpoint: inhibition (%)

1) Nc1nc(Nc2ccccc2)cc(N2CCC(C(=O)NCCc3ccccn3)CC2)n1 : 0
2) Cc1cccc(Oc2ccnc(N3CCN(C(=O)c4c(C)noc4C)CC3)n2)c1 : 5
3) O=C(CN1CCN(c2ncnc3c2CN(Cc2ccccc2)CC3)CC1)Nc1cc(F)ccc1F : 0
4) CN(CCc1ccccn1)C(=O)c1cccc(Nc2nccc(Nc3ccc4ncsc4c3)n2)c1 : 80
5) CC(=O)CCCCC(=O)N1CCN(c2nccc(Oc3cccc(C)c3)n2)CC1 : 11
6) Cc1cccc(Oc2ccnc(N3CCN(CC(=O)Nc4cccc5c4CCCC5)CC3)n2)c1 : 0
7) Nc1nc(N2CCOCC2)cc(N2CCC(C(=O)NCCc3ccc(O)cc3)CC2)n1 : 15
8) Cc1cccc(N(C)c2cc(Nc3cccc(C(=O)NCc4ccncc4)c3)ncn2)c1 : 0
9) Cc1cccc(N(C)c2cc(Nc3cccc(C(=O)N4CCCC5CCCCC54)c3)ncn2)c1 (configuration not stated) : 0
10) COc1ccc(NC(=O)Cc2ccc(Nc3cc(N(C)c4cccc(C)c4)ncn3)cc2)cn1 : 16
11) Cc1cccc(Oc2ccnc(N3CCC[C@H]3C(=O)NCc3cccnc3)n2)c1 : 0
12) O=C(COc1ccccc1)N1CCN(c2nccc(Nc3ccc4ncsc4c3)n2)CC1 : 16
13) Clc1ccc2sc(CN3CCN(c4ncnc5c4CN(Cc4ccccc4)CC5)CC3)cc2c1 : 6
14) CN(C)CC(C)(C)CNC(=O)c1cccc(Nc2nccc(Nc3ccc4ncsc4c3)n2)c1 : 86
15) CN(C)CC(C)(C)CNC(=O)C1CCN(c2cc(N3CCOCC3)nc(N)n2)CC1 : 21
16) CN(CCc1ccccn1)C(=O)[C@@H]1CCCN1c1nccc(Nc2ccccc2)n1 : 0
17) O=C(NC1Cc2ccccc2C1)c1cccc(Nc2ccnc(N3CCN(c4ccccc4)CC3)n2)c1 : 2
18) COc1cccc(Nc2cc(Nc3cccc(C(=O)N(C)CCc4ccccn4)c3)nc(N)n2)c1 : 7
19) Cc1cccc(N(C)c2cc(N3CCN(CC(=O)Nc4nc(-c5ccccc5)cs4)CC3)ncn2)c1 : 0
20) Nc1nc(N2CCOCC2)cc(N2CCC(C(=O)NCc3cccs3)CC2)n1 : 11
21) CN(C)c1ccc(C(=O)N2CCN(c3ncnc4c3CN(Cc3ccccc3)CC4)CC2)c2ccccc12 : 19
22) Cc1cccc(N(C)c2cc(Nc3ccc(CC(=O)Nc4ccc5ncsc5c4)cc3)ncn2)c1 : 19
23) Cc1cccc(N(C)c2cc(Nc3cccc(C(=O)NCCCn4ccnc4)c3)ncn2)c1 : 5
24) Nc1nc(Nc2ccc3ncsc3c2)cc(N2CCC[C@H]2C(=O)NCCc2cccc(I)c2)n1 : 13
25) CN(C)CC(C)(C)CNC(=O)[C@@H]1CCCN1c1nccc(Nc2ccccc2)n1 : 4
26) COC(=O)C(CO)NC(=O)[C@@H]1CCCN1c1nccc(Oc2cccc(C)c2)n1 (some centres not stated) : 0
27) O=C(C1CCN(c2nccc(Nc3ccccc3)n2)CC1)N1CC[C@@H](O)C1 : 4

---

- target-system: Vascular endothelial growth factor receptor 2 (Homo sapiens) (UniProt P35968)
- Sequence (P35968 whole entry): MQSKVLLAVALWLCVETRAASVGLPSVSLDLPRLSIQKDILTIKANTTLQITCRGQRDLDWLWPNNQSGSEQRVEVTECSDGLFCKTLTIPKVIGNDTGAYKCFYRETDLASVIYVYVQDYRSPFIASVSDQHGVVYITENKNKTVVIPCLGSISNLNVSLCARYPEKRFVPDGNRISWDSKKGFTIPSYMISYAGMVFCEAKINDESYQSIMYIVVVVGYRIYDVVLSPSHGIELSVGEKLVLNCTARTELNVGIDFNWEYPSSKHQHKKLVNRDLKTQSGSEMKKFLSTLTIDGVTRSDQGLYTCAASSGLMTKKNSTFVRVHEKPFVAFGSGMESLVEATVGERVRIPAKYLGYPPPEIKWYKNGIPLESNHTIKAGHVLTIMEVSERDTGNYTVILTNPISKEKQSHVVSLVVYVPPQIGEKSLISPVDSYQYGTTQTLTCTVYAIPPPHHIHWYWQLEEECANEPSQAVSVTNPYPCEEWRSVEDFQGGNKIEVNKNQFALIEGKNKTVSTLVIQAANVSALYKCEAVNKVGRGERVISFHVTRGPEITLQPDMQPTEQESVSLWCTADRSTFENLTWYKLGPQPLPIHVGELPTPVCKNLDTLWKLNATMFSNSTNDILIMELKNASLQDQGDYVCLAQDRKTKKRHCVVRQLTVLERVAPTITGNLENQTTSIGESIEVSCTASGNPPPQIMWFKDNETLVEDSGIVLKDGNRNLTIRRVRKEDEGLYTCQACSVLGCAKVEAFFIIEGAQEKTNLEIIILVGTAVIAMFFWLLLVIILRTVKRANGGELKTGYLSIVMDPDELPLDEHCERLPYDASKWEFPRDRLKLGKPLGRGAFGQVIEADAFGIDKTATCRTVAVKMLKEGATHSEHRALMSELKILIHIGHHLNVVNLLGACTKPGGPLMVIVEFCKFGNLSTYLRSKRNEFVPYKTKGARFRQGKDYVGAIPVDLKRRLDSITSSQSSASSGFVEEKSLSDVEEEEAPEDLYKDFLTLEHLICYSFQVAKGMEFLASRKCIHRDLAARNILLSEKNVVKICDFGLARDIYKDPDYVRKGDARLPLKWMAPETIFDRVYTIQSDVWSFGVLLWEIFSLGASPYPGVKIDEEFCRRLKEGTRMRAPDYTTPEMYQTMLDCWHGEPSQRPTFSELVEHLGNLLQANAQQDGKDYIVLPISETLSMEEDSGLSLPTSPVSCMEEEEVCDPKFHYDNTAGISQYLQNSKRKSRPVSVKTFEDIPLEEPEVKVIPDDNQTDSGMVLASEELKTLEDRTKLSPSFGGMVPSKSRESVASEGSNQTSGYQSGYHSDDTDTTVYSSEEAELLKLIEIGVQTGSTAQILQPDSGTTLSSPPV
- run-description: Inhibition of KDR at 10 uM by HTRF assay relative to control
// reported inhibition per item
endpoint: inhibition (%)

1. COc1cccc(Nc2cc(N3CCC[C@H]3C(=O)NCCN3CCCCC3)nc(N)n2)c1 : 5
2. O=C(C1CCN(c2nccc(Nc3ccccc3)n2)CC1)N1CC[C@@H](O)C1 : 4
3. Cc1cccc(Oc2ccnc(N3CCC[C@H]3C(=O)NCc3cccnc3)n2)c1 : 4
4. COC[C@@H]1CCCN1C(=O)C1CCCN1c1cc(Nc2cccc(Br)c2)ncn1 (stereo not given in full) : 0
5. COc1cccc(Nc2cc(Nc3cccc(C(=O)NCCCn4ccnc4)c3)nc(N)n2)c1 : 13
6. Cc1cc(C(=O)N2CCN(c3ncnc4c3CN(Cc3ccccc3)CC4)CC2)c(C)n1C : 0
7. Nc1nc(Nc2ccc3ncsc3c2)cc(N2CCC[C@H]2C(=O)NCCc2cccc(I)c2)n1 : 17
8. Cc1cccc(Oc2ccnc(N3CCN(C(=O)c4c(C)noc4C)CC3)n2)c1 : 18
9. CN(CCc1ccccn1)C(=O)[C@@H]1CCCN1c1nccc(Nc2ccccc2)n1 : 2
10. CC(=O)CCCCC(=O)N1CCN(c2nccc(Oc3cccc(C)c3)n2)CC1 : 14
